biological target: SETD2(1434-1711) (Homo sapiens, UniProt Q9BYW2); construct: SETD2 (1434-1711) Assay; catalogue N/A; assay: SETD2 (1434-1711) assay; type: biochemical; settings: read-out: SETD2 (1434-1711)
pIC50: −log10 of the molar value.
observable: pIC50

Worked cases, answers included:
compound	endpoint-value
Cc1cc(N2CCN(CCCc3cccnc3)CC2)cnc1C(NC(=O)c1cc2cccc(C)c2[nH]1)C1CC1 (centres unmarked)	6.10
Cc1ccc(F)c2cc(C(=O)Nc3cc(F)cc([C@H]4CC[C@@H](N(C)C)CC4)c3)[nH]c12	8.52
Cc1ccc(F)c2cc(C(=O)Nc3cccc(N4CC(C)OCC4C)c3)[nH]c12 (centres unmarked)	6.40

P. COC(=O)CC(NC(=O)c1cc2cccc(C)c2[nH]1)c1cccnc1 (centres unmarked)
Q. Cc1ccc(F)c2cc(C(=O)Nc3cccc(N4CCn5ccnc5C4)c3)[nH]c12
Req: Look at P and Q . Which one has the lower recorded pIC50 number? // return label of chosen record
Resp: P
(P: 4.45, Q: 7.30)

====

Target: SETD2(1434-1711) (Homo sapiens, UniProt Q9BYW2)
Construct: SETD2 (1434-1711) Assay; catalogue N/A
Sequence (Q9BYW2 1434-1711): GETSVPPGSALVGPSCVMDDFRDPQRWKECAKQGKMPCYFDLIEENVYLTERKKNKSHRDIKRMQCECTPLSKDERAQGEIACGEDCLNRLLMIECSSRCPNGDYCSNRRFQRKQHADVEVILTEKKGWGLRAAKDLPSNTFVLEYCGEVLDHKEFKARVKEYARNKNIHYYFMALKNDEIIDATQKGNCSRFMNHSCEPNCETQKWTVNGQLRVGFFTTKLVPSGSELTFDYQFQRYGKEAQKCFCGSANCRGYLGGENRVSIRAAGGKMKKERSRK
Assay: SETD2 (1434-1711) assay
Assay type: biochemical
Settings: read-out: SETD2 (1434-1711)
observable: IC50 (nM)

// worked examples, IC50 included
compound	unit-label	IC50
COc1cc(OC)cc(C(O)CNC(=O)c2cc3cccc(C)c3[nH]2)c1 (centres unmarked)	nM	45000
Cc1ccc(F)c2cc(C(=O)NC3CCCC(N4CCC5(CC4)COC(=O)N5)C3)[nH]c12 (centres unmarked) [compound 964]	nM	500
Cc1cccc2cc(C(=O)NC(C)c3ccccc3Cl)[nH]c12 (centres unmarked) [compound 1154]	nM	6000
Cc1ccc(F)c2cc(C(=O)NC3CCCC(N4CCC(N(C)C(=O)C(C)(C)O)C4)C3)[nH]c12 (centres unmarked) [compound 1145]	nM	1800
Cc1ccc(F)c2cc(C(=O)Nc3cccc(-c4n[nH]c(=O)[nH]4)c3)[nH]c12	nM	200
Cc1ccc(F)c2cc(C(=O)Nc3cc(F)cc(N4CCC(N5CCN(C(=O)CN(C)C)CC5)C4)c3)[nH]c12 (centres unmarked)	nM	4
Cc1noc(C(C)NC(=O)c2cc3cccc(C)c3[nH]2)n1 (centres unmarked)	nM	165000
Cc1cccc2cc(C(=O)NC(c3ccccn3)C3CC3)[nH]c12 (centres unmarked)	nM	27900

a. Cc1cccnc1C(Cc1cnn(CC2CC2)c1)NC(=O)c1cc2c(F)ccc(C)c2[nH]1 (centres unmarked)
b. Cc1ccc(F)c2cc(C(=O)Nc3cccc(-c4cnn5ccccc45)c3)[nH]c12
Req: Between the entries labelled a and b , which has a larger IC50 value on record? Please identify the chosen entry by its label.
Resp: b
(b: 400 nM, a: 40 nM)

a. Cc1ccc(F)c2cc(C(=O)Nc3cccc(C4CCNC4)c3)[nH]c12 (centres unmarked)
b. Cc1ccc(F)c2cc(C(=O)Nc3cccc(-c4ncccn4)c3)[nH]c12
Req: Of a and b , which one carries the higher reported IC50? Pick one and reply with its label.
Resp: b

====

Biological target: SETD2(1434-1711) (Homo sapiens, UniProt Q9BYW2)
Construct: SETD2 (1434-1711) Assay; catalogue N/A
Sequence (Q9BYW2 1434-1711): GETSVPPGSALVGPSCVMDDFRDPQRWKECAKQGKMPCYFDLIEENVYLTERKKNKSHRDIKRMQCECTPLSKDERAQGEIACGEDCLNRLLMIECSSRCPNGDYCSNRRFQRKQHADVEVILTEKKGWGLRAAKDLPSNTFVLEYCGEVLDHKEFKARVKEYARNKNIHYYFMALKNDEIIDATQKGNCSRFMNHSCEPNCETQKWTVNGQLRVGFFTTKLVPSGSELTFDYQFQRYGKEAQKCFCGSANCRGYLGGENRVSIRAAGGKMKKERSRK
Assay: SETD2 (1434-1711) assay
Format: biochemical
Conditions: read-out: SETD2 (1434-1711)
observable: IC50 (nM)

Use these answered entries as a reference point.
compound	observable	unit-label	endpoint-value
Cc1ccc(F)c2cc(C(=O)Nc3cc(F)cc([C@H]4CC[C@H](N5CCOCC5)CC4)c3)[nH]c12	IC50	nM	100
Cc1ccc(F)c2cc(C(=O)Nc3cccc(-c4ccc(CNS(C)(=O)=O)cc4)c3)[nH]c12	IC50	nM	400
Cc1ccc(F)c2cc(C(=O)Nc3cccc(-c4ncco4)c3)[nH]c12	IC50	nM	80
CC(=O)N1CCN(c2ccccc2CNC(=O)c2cc3cccc(C)c3[nH]2)CC1	IC50	nM	9100
Cc1cc2ncc(CN(C)C)n2cc1NC(=O)c1cc2cccc(C)c2[nH]1	IC50	nM	6700
Cc1ccc(F)c2cc(C(=O)N[C@@H]3CCC[C@H](N4CCn5c(nccc5=O)C4)C3)[nH]c12	IC50	nM	50
CC(=O)N(C)C1CCCN(C2COCC(NC(=O)c3cc4c(F)ccc(C)c4[nH]3)C2)C1 (stereo not shown)	IC50	nM	500
Cc1ccc(F)c2cc(C(=O)Nc3cccc(CCN)c3)[nH]c12	IC50	nM	100

1. CC(=O)N1CC2CCC1CN2C1CCCC(NC(=O)c2cc3c(F)ccc(C)c3[nH]2)C1 (stereo not shown) [compound 962]
2. Cc1ccc(F)c2cc(C(=O)Nc3cc(F)cc(C4CCN(C(=O)CN(C)C)C4)c3)[nH]c12 (stereo not shown)
3. Cc1cc(C(=O)NC2CCN(C)CC2)cnc1C(NC(=O)c1cc2c(F)ccc(C)c2[nH]1)C1CC1 (stereo not shown)
4. CC(=O)N1CCN([C@@H]2CCC[C@@H](NC(=O)c3cc4cccc(C)c4[nH]3)C2)CC1
Req: Order the items by recorded IC50; the first position goes to the largest value. Your task in answering is to list the labels in the requested order.
Resp: 4, 1, 3, 2

====

target: SETD2(1434-1711) (Homo sapiens, UniProt Q9BYW2); construct: SETD2 (1434-1711) Assay; catalogue N/A; assay: SETD2 (1434-1711) assay; type: biochemical; settings: read-out: SETD2 (1434-1711)
observable: IC50 (nM)

I. Cc1cccc2cc(C(=O)Nc3ccc4ccc(CN5CCOCC5)cc4c3)[nH]c12
II. Cc1ccc(F)c2cc(C(=O)Nc3cccc(N4CCC(N(C)C)C4)c3)[nH]c12 (centres unmarked)
Req: Looking only at measured IC50, which entry is lower, I or II ? Let me know the label of the one you choose.
Resp: II

A. Cc1cc(C2CCC(NC(=O)Cc3cccnc3)CC2)cnc1C(NC(=O)c1cc2cccc(C)c2[nH]1)C1CC1 (centres unmarked)
B. Cc1ccc(F)c2cc(C(=O)Nc3cccc(-c4ncn[nH]4)c3)[nH]c12
C. CC(=O)N1CCN(c2ccc(F)c(NC(=O)c3cc4c(F)ccc(C)c4[nH]3)c2)CC1
D. Cc1cccnc1C(CCC(=O)NC1CCOC1)NC(=O)c1cc2cccc(C)c2[nH]1 (centres unmarked)
E. Cc1ccc(F)c2cc(C(=O)NC3CCCC(N4CCN5C(=O)CN(C)C(=O)C5C4)C3)[nH]c12 (centres unmarked) [compound 1046]
Req: I would appreciate it if you could sort these 5 molecules by IC50, starting from the smallest number. Order the labels as requested and give them as your answer.
Resp: C, B, A, E, D
(C: 100 nM, B: 300 nM, A: 600 nM, E: 2800 nM, D: 15900 nM)

====

target: SETD2(1434-1711) (Homo sapiens, UniProt Q9BYW2); construct: SETD2 (1434-1711) Assay; catalogue N/A; experiment: SETD2 (1434-1711) assay; type: biochemical; conditions: read-out: SETD2 (1434-1711)
pIC50: −log10 of the molar value.
observable: pIC50

Below are worked cases with known answers.
compound	observable	endpoint-value
Cc1ccc(F)c2cc(C(=O)NC3CCCC(N4CCC(N(C)C(=O)C(C)C)C4)C3)[nH]c12 (stereo not shown) [compound 969]	pIC50	8.40
CCN(CC)CCS(=O)(=O)N1CCN(c2cccc(NC(=O)c3cc4cccc(C)c4[nH]3)c2)CC1	pIC50	6.40
Cc1cccc2cc(C(=O)NC3CCNCC3)[nH]c12	pIC50	4.00

A. Cc1cccc2cc(C(=O)Nc3cccc(CN4CCOCC4)n3)[nH]c12
B. Cc1ccc(F)c2cc(C(=O)NC3CCCC(N4CCCN(S(C)(=O)=O)CC4)C3)[nH]c12 (stereo not shown) [compound 981]
C. Cc1ccc(F)c2cc(C(=O)N[C@@H]3CCC[C@H](N4CCn5nc(C(F)(F)F)nc5C4)C3)[nH]c12
Req: List these items ordered by pIC50, big to small. Order the labels as requested and give them as your answer.
Resp: B, C, A

a. Cc1cc(OCC(O)CNCc2cccnc2)cnc1C(NC(=O)c1cc2cccc(C)c2[nH]1)C1CC1 (stereo not shown)
b. Cc1cccc2cc(C(=O)N[C@H](c3ccccc3)C(F)(F)F)[nH]c12
Req: Which gives the smaller pIC50 number: a or b ? State your choice using its label.
Resp: b
(b: 3.91, a: 6.22)
